B1: Chromodomain-helicase-DNA-binding protein 5, residues 411 to 463; numbered along this chain, Q8TDI0 (parent)
chain: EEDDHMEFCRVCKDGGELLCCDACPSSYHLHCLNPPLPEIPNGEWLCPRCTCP

# Variants of: B1
# experimental protocol: abundance fitness (aPCA) (normalised: wild type 0, dead -1); higher = more abundant; growth selection in yeast, the domain comes from the species named
# run conditions: Homo sapiens
measure name: abundance fitness

// below: answered variants
- P35A: -0.299
- N42T: 0.014
- C24V: -0.589

Now for a further variant.
Documented abundance fitness of `P25A` : 0.094
